# ASSAY TARGET: non-mutated CFTR (Homo sapiens, UniProt P13569)
# Construct: endogenous in cells; host or cells: human glandular (lacrimal gland) epithelial cells, polarised on Snapwell filters
# Sequence (P13569 whole entry, change not shown): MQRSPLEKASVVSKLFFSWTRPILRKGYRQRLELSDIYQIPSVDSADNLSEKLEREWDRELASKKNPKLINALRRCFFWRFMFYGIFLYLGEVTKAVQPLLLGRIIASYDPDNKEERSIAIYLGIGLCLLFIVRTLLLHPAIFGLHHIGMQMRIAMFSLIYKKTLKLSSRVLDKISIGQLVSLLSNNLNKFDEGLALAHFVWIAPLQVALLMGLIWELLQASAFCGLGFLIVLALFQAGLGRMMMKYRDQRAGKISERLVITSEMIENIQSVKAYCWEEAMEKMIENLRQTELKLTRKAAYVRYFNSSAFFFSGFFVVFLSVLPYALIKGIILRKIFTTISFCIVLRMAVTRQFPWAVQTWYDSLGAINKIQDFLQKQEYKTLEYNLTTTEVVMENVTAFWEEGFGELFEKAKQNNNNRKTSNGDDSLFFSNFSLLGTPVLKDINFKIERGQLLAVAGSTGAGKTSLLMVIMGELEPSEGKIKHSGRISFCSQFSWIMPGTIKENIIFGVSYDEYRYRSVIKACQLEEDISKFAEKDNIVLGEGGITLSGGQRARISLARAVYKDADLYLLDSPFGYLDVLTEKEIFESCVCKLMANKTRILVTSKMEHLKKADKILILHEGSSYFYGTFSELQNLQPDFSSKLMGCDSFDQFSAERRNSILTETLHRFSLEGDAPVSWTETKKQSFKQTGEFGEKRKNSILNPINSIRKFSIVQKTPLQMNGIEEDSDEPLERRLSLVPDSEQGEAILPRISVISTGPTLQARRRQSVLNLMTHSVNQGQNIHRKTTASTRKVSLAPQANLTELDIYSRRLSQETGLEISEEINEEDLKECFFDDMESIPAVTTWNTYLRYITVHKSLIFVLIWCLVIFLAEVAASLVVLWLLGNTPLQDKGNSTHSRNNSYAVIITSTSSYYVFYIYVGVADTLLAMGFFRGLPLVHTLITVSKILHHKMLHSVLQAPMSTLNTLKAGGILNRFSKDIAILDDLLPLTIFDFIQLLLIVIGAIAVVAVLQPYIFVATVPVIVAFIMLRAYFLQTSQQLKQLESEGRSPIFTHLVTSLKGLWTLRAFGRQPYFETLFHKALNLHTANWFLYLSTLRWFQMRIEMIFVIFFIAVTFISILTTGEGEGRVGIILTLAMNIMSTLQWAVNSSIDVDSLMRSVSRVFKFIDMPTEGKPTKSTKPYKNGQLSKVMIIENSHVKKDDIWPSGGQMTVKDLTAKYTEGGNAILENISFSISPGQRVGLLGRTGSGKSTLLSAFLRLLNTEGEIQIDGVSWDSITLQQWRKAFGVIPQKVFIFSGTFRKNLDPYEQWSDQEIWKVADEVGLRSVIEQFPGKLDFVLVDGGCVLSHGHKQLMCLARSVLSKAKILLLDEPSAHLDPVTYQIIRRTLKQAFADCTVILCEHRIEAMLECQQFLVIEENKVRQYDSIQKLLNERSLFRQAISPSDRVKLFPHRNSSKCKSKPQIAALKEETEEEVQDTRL
# TEST METHOD NOTES: Ussing chamber short-circuit current on lacrimal gland epithelial cells expressing non-mutated CFTR
# Assay type: cell-based
# RUN PARAMETERS: basal pole; FIG. 3; read-out: EC50 for the basal pole
EXPERIMENTAL ENDPOINT: EC50 (µM)
Give bare numbers, in µM.

Reported EC50, compound COc1ccc2c(c1OC)C(=O)O[C@@H]2[C@H]1c2c(cc3c(c2OC)OCO3)CCN1C : ____
4.87
